Molecular target: SMARCA2 (Homo sapiens, UniProt P51531)
Construct: endogenous in cells
Sequence (P51531 whole entry, species assumed): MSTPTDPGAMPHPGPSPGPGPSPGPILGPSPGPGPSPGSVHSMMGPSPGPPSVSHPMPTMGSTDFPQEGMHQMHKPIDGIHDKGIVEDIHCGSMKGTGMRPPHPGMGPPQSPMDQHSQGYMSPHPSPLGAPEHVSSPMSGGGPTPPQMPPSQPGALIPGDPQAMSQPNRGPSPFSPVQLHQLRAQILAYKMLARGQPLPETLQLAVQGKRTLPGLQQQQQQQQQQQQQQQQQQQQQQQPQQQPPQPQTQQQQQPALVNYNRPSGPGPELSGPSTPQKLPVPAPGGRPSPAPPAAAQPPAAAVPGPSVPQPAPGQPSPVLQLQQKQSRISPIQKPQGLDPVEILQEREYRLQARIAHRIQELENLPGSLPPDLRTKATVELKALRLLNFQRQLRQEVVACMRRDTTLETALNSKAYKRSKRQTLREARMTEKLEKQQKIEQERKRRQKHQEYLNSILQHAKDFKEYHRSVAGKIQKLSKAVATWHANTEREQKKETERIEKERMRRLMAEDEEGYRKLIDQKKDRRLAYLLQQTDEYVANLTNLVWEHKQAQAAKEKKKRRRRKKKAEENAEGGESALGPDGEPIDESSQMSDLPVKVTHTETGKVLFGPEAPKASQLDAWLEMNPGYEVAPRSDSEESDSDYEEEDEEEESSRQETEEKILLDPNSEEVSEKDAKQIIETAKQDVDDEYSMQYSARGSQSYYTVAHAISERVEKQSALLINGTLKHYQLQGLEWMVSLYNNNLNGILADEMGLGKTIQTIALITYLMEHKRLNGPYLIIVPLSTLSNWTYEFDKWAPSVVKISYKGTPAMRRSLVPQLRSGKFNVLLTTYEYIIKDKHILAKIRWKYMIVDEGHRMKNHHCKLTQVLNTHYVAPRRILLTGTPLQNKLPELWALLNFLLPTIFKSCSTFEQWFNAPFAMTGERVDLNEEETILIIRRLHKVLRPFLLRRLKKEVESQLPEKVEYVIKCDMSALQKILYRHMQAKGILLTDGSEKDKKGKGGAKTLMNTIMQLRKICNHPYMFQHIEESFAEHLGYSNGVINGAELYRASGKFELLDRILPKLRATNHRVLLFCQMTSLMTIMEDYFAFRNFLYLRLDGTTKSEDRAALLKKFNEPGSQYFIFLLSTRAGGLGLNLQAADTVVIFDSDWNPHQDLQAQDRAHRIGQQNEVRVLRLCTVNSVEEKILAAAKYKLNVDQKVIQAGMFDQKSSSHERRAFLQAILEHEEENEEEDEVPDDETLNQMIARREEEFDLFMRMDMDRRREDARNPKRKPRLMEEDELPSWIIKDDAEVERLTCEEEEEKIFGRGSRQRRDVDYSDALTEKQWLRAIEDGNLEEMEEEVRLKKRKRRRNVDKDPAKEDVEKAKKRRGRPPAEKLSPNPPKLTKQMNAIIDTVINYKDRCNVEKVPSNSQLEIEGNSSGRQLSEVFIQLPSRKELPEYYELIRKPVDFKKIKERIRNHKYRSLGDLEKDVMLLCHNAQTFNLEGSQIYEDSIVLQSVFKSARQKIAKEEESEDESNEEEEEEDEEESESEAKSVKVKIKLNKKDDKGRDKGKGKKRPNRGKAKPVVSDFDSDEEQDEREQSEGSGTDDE
Assay: SMARCA2 Cellular Degradation Assay (Western blot analysis on Jess platform)
Format: cell-based
Settings: cellular degradation
READOUT_KIND: DC50 (nM)

Worked cases, answers included:
>  <MOLECULE>
CC1(C)CC(NC(=O)C2(c3ccccc3)CCN(c3cnnc(-c4ccccc4O)c3)CC2)CCN1CC1CCN(c2ccc([C@H]3CCC(=O)NC3=O)cc2)CC1 (some centres unmarked)

>  <RESULT_VALUE>
6.43

$$$$
>  <MOLECULE>
O=C1CC[C@@H](c2ccc(N3CCC(CN4CCC5(C4)CN(C(=O)C4(c6ccccc6)CCN(c6cnnc(-c7ccccc7O)c6)CC4)C5)CC3)cc2)C(=O)N1

>  <RESULT_VALUE>
19.9

$$$$

I = CCN(C(=O)C1(c2ccccc2)CCN(c2cnnc(-c3ccccc3O)c2)CC1)C1CCN(CCC2CCN(c3ccc([C@H]4CCC(=O)NC4=O)cc3)CC2)CC1
II = CN(C(=O)CN1CCN(c2ccc([C@H]3CCC(=O)NC3=O)cc2)CC1)[C@H]1CC[C@H](NC(=O)C2(Oc3ccccc3)CCN(c3cnnc(-c4ccccc4O)c3)CC2)CC1 (racemic)
Identify the entry with the smaller DC50: I or II . # respond with the chosen item's label
I

P = O=C1CC[C@H](c2ccc(N3CCC(CN4CCC5(CC4)CN(C(=O)C4(c6ccccc6)CCN(c6cnnc(-c7ccccc7O)c6)CC4)C5)CC3)nc2)C(=O)N1
Q = O=C1CC[C@H](c2ccc(N3CCC(CN4CCCC4C4CCN(C(=O)C5(c6ccccc6)CCN(c6cnnc(-c7ccccc7O)c6)CC5)CC4)CC3)cc2)C(=O)N1 (some centres unmarked)
I'd appreciate it if you could identify which of P and Q has the greater DC50. Respond with the label that goes with your answer.
Q

I = O=C1CC[C@H](c2ccc(N3CCC(CN4CCCN(C(=O)C5(c6ccccc6)CCN(c6cnnc(-c7ccccc7O)c6)CC5)CC4)CC3)cc2)C(=O)N1
II = CN(C(=O)C1(OC2CC2)CCN(c2cnnc(-c3ccccc3O)c2)CC1)C1CCN(CCC2CCN(c3ccc(C4CCC(=O)NC4=O)cc3)CC2)CC1 (racemic)
Exercise: compare I and II ; which one has the greater DC50? Respond using the label that marks the chosen record.
I

* * *

Target: SMARCA2 (Homo sapiens, UniProt P51531)
Construct: endogenous in cells
Assay: SMARCA2 Cellular Degradation Assay (Western blot analysis on Jess platform)
Format: cell-based
Conditions: ratio DC50 SMARCA4 / DC50 SMARCA2
READOUT_KIND: Fold Selectivity SMARCA4/2

Example compounds with recorded Fold Selectivity SMARCA4/2:
>  <COMPOUND>
O=C1CC[C@H](c2ccc(N3CCC(CN4CC5(C4)CN(C(=O)C4(C6CC6)CCN(c6cnnc(-c7ccccc7O)c6)CC4)C5)CC3)cc2)C(=O)N1

>  <READOUT_KIND>
Fold Selectivity SMARCA4/2

>  <RESULT_VALUE>
159.52

$$$$
>  <COMPOUND>
Cc1ccnn1C1(C(=O)N(C)C2CCN(C3COC4(CCN(c5ccc([C@H]6CCC(=O)NC6=O)cc5)CC4)C3)CC2)CCN(c2cnnc(-c3ccccc3O)c2)CC1 (mixture of isomers)

>  <READOUT_KIND>
Fold Selectivity SMARCA4/2

>  <RESULT_VALUE>
1140

$$$$
>  <COMPOUND>
O=C1CC[C@H](c2ccc(N3CCC(CN4CC5CC(NC(=O)C6(c7ccccc7)CCN(c7cnnc(-c8ccccc8O)c7)CC6)C4C5)CC3)cc2)C(=O)N1 (stereo partly drawn)

>  <READOUT_KIND>
Fold Selectivity SMARCA4/2

>  <RESULT_VALUE>
1

$$$$
>  <COMPOUND>
O=C1CCC(c2ccc(N3CCC4(CC3)CC(CN3CC5(CCN(C(=O)C6(c7ccccc7)CCN(c7cnnc(-c8ccccc8O)c7)CC6)CC5)C3)C4)cc2)C(=O)N1 (racemic)

>  <READOUT_KIND>
Fold Selectivity SMARCA4/2

>  <RESULT_VALUE>
225

$$$$
>  <COMPOUND>
O=C1CCC(c2ccc(N3CCC(C(=O)N4CC5(C4)CN(C(=O)C4(c6ccccc6)CCN(c6cnnc(-c7ccccc7O)c6)CC4)C5)CC3)cc2)C(=O)N1 (racemic)

>  <READOUT_KIND>
Fold Selectivity SMARCA4/2

>  <RESULT_VALUE>
406.6

$$$$
>  <COMPOUND>
O=C1CC[C@H](c2ccc(N3CCC(CN4CC5(C4)CN(C(=O)C4(c6ccccc6)CCN(c6cnnc(-c7ccccc7O)c6)CC4)C5)CC3)cc2)C(=O)N1

>  <READOUT_KIND>
Fold Selectivity SMARCA4/2

>  <RESULT_VALUE>
340.31

$$$$
>  <COMPOUND>
CN(C(=O)C1(c2ccccc2)CCN(c2cnnc(-c3ccccc3O)c2)CC1)C1CCN(CCC2CCN(c3cccc4c3n(C)c(=O)n4C3CCC(=O)NC3=O)CC2)CC1 (racemic)

>  <READOUT_KIND>
Fold Selectivity SMARCA4/2

>  <RESULT_VALUE>
28

$$$$
>  <COMPOUND>
COc1ccccc1C1(C(=O)N(C)C2CCN(CCC3CCN(c4ccc([C@H]5CCC(=O)NC5=O)c(F)c4)CC3)CC2)CCN(c2cnnc(-c3ccccc3O)c2)CC1

>  <READOUT_KIND>
Fold Selectivity SMARCA4/2

>  <RESULT_VALUE>
1220

$$$$

1 = CN(CC1(c2ccccc2)CCN(c2cnnc(-c3ccccc3O)c2)CC1)C1CCN(C(=O)CN2CCC(c3ccc(C4CCC(=O)NC4=O)cc3)CC2)CC1 (racemic)
2 = O=C1CC[C@H](c2ccc(N3CCC(CN4CCC(C5CCN(C(=O)C6(c7ccccc7)CCN(c7cnnc(-c8ccccc8O)c7)CC6)CC5)C4)CC3)cc2)C(=O)N1 (stereo partly drawn)
3 = O=C1CC[C@@H](c2ccc(C3CCN(CC(=O)N4C[C@@H]5[C@H](C4)[C@H]5C(=O)NCC4(c5ccccc5)CCN(c5cnnc(-c6ccccc6O)c5)CC4)CC3)cc2)C(=O)N1 (racemic)
4 = CN(C(=O)C1(c2ccnn2C)CCN(c2cnnc(-c3ccccc3O)c2)CC1)C1CCN(CCC2CCN(c3ccc(C4CCC(=O)NC4=O)cc3)CC2)CC1 (racemic)
5 = COc1ccccc1C1(C(=O)N(C)C2CCN(CC3CCN(c4ccc([C@H]5CCC(=O)NC5=O)cc4)CC3)CC2)CCN(c2cnnc(-c3ccccc3O)c2)CC1
Number of compounds to sort: 5. Sort criterion: Fold Selectivity SMARCA4/2, ascending. Order the labels as requested and give them as your answer.
2, 5, 1, 3, 4
(2: 1, 5: 8, 1: 12, 3: 910, 4: 3583)

* * *

Target: SMARCA2 (Homo sapiens, UniProt P51531)
Construct: endogenous in cells
Test: SMARCA2 Cellular Degradation Assay (Western blot analysis on Jess platform)
Format: cell-based
Details: ratio DC50 SMARCA4 / DC50 SMARCA2
READOUT_KIND: Fold Selectivity SMARCA4/2

>  <COMPOUND>
O=C1CCC(c2ccc(N3CCC(CCN4CC5(C4)CN(C(=O)C4(OC6CCCCC6)CCN(c6cnnc(-c7ccccc7O)c6)CC4)C5)CC3)cc2)C(=O)N1 (racemic)

>  <EXPERIMENTAL_TARGET>
SMARCA2 (Homo sapiens, UniProt P51531)

>  <Fold Selectivity SMARCA4/2>
671

$$$$
>  <COMPOUND>
O=C1CC[C@H](c2ccc(N3CCC(CN4CCC(NC(=O)C5(c6ccccc6)CCN(c6cnnc(-c7ccccc7O)c6)CC5)CC45CCC5)CC3)cc2)C(=O)N1 (stereo partly drawn)

>  <EXPERIMENTAL_TARGET>
SMARCA2 (Homo sapiens, UniProt P51531)

>  <Fold Selectivity SMARCA4/2>
25.67

$$$$
>  <COMPOUND>
O=C1CCC(c2ccc(N3CCN(C(=O)C4CC45CCN(C(=O)C4(c6ccccc6)CCN(c6cnnc(-c7ccccc7O)c6)CC4)C5)CC3)cc2)C(=O)N1 (racemic)

>  <EXPERIMENTAL_TARGET>
SMARCA2 (Homo sapiens, UniProt P51531)

>  <Fold Selectivity SMARCA4/2>
1

$$$$
>  <COMPOUND>
Cn1ccc(OC2(C(=O)N3CC4(CN(CCC5CCN(c6cccc7c6n(C)c(=O)n7C6CCC(=O)NC6=O)CC5)C4)C3)CCN(c3cnnc(-c4ccccc4O)c3)CC2)n1 (racemic)

>  <EXPERIMENTAL_TARGET>
SMARCA2 (Homo sapiens, UniProt P51531)

>  <Fold Selectivity SMARCA4/2>
51

$$$$
>  <COMPOUND>
Cn1c(=O)n(C2CCC(=O)NC2=O)c2cccc(N3CCN(CC(=O)N4CC5(C4)CN(C(=O)C4(c6ccccc6)CCN(c6cnnc(-c7ccccc7O)c6)CC4)C5)CC3)c21 (racemic)

>  <EXPERIMENTAL_TARGET>
SMARCA2 (Homo sapiens, UniProt P51531)

>  <Fold Selectivity SMARCA4/2>
304

$$$$
>  <COMPOUND>
COCCN(CC1(c2ccccc2)CCN(c2cnnc(-c3ccccc3O)c2)CC1)C(=O)C1CCN(CCC2CCN(c3ccc([C@@H]4CCC(=O)NC4=O)cc3)CC2)CC1 (racemic)

>  <EXPERIMENTAL_TARGET>
SMARCA2 (Homo sapiens, UniProt P51531)

>  <Fold Selectivity SMARCA4/2>
6

$$$$

A = Cc1cc(C2(C(=O)N(C)C3CCN(CC4CCN(c5ccc(C6CCC(=O)NC6=O)cc5)CC4)CC3)CCN(c3cnnc(-c4ccccc4O)c3)CC2)on1 (racemic)
B = O=C1CC[C@@H](c2ccc(N3CCC(CN4CCC(NCC5(c6ccccc6)CCN(c6cnnc(-c7ccccc7O)c6)CC5)CC4)CC3)cc2)C(=O)N1
Please state the entry with greater Fold Selectivity SMARCA4/2 among A and B . Indicate which entry you chose by stating its label.
A

Data credit: patent US20250051344A1
